α1b-AR (Homo sapiens, UniProt P35368) Ki data
Sequence (P35368 whole entry): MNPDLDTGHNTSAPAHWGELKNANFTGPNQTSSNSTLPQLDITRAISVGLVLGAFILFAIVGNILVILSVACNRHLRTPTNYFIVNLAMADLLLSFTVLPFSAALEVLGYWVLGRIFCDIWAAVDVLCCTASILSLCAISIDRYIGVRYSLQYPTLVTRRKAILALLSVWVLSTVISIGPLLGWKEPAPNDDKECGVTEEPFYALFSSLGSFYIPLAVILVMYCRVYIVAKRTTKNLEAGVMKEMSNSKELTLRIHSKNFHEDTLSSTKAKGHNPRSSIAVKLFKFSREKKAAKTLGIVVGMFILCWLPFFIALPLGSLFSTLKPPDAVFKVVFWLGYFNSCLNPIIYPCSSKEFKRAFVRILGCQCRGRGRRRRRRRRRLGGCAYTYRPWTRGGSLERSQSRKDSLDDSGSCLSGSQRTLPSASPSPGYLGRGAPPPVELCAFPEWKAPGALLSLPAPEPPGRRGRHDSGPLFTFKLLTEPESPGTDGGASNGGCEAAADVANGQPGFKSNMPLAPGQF
Write it as a number; the unit nM goes unstated.

>  <STRUCTURE_NOTATION>
O=S(=O)(N[C@H]1CC[C@@H](N2CCN(c3ncccc3OCC3CC3)CC2)CC1)c1cc(Cl)ccc1F

>  <TESTED_SYSTEM>
α1b-AR (Homo sapiens, UniProt P35368)

>  <Ki (nM)>
952

$$$$

With those in mind, consider the next molecule.
Ask: Specify measured Ki for COc1ccc(Cl)cc1S(=O)(=O)N[C@H]1CC[C@@H](N2CCN(c3ncccc3OC(C)C)CC2)CC1 .
Reply: 399
